Reference source: the supplement of paper PMC11865577

Tested on: TO-N3 (biotin conjugate)
protocol: pull-down binding Z-score (relative to library population); higher = stronger binding
experimental_context: RNA library: Library-2
This section presents sequences with their documented pull-down binding Z-score values.

INSERT INTO measurements (residue_sequence, recorded_result) VALUES
  ('CAGACUGUCUUCCCAAAUAGCCUG [hsa-mir-4772]', -0.0312),
  ('GUGGCCUUGGACAAGCCUCUUGGUUAC [hsa-mir-4672]', -0.141);

Ask | Could you please provide reported pull-down binding Z-score for CUUCUUGCAUGUGACUUAUGUCCCUGCACAAGAAAAG [SHAPE_invitro_SARS-CoV-2_Motif_449] ? Thanks!
Reply | -0.309

###

System: TO-N3 (biotin conjugate)
protocol: pull-down binding Z-score (relative to library population); higher = stronger binding
experimental_context: RNA library: Library-2
Parameter threshold = -0.4. Response is Fulfilled when pull-down binding Z-score meets or exceeds it, else Not fulfilled.

Field: example entries. Status: answers known.
INSERT INTO results (residue_sequence, class_label) VALUES
  ('UCUGAAGAAGUAGUGGAAAAUCCUACCAUACAGA [DMSMaPseq_invitro_SARS-CoV-2_Motif_122]', 'Fulfilled'),
  ('AGAUCCCCUGUUAGAGACGGGCC [hsa-mir-6840]', 'Fulfilled'),
  ('GCAGCUAGUAUUCUCACUCCAGUUGC [hsa-mir-153-1]', 'Fulfilled');

Ask | Threshold query (pull-down binding Z-score >= -0.4) on UUAAUUGAAUUGUGCGUGGAUGAGGCUGGUUCUAAAUCACCCAUUCAGUACAUCGAUAUCGGUAAUUAUACAGUUUCCUGUUUACCUUUUACAAUUAA [DMSMaPseq_invitro_SARS-CoV-2_Multi_84_ComplexLevel_1]
Reply | Fulfilled

Ask | Threshold query (pull-down binding Z-score >= -0.4) on `CAUGCAAAUUACAUAUUUUGGAGGAAUACAAAUCCAAUUCAGUUGUCUUCCUAUUCUUUAUUUGACAUG`
Reply | Not fulfilled

Ask | Threshold query (pull-down binding Z-score >= -0.4) on `CUGACUUAACAAAGCCUUACAUUAAGUGGGAUUUGUUAAAAUAUGACUUCACGGAAGAGAGGUUAAAACUCUUUGACCGUUAUUUUAAAUAUUGG`
Reply | Not fulfilled

###

This section presents sequences with their documented pull-down binding Z-score values.
System: TO-3-N3 (biotin conjugate)
protocol: pull-down binding Z-score (relative to library population); higher = stronger binding
experimental_context: RNA library: Library-2
Returns: the value as a bare number; no unit string appended.

Here are 2 sequences together with their reported answers.
INSERT INTO measurements (residue_sequence, recorded_result) VALUES
  ('UCUUCCCAGAAUUGGGAAAA [hsa-mir-320c-2]', -0.813),
  ('GUGUACAGGGAGGAGACUGUACGUGAGAGAUAGUCAGAUCCGCAUGUUAGAGCAGAGUCUCCUUCGUGUACAG [hsa-mir-4441]', -0.779);

--- query ---
Ask | Could you please provide reported pull-down binding Z-score for GAAGGUCUUAAUGACAACCUUC [SHAPE_invitro_SARS-CoV-2_Motif_33] ? Thanks!
Reply | -0.78

###

Test system: G-clamp-N3 (biotin conjugate)
protocol: pull-down binding Z-score (relative to library population); higher = stronger binding
experimental_context: RNA library: Library-1 (pre-miRNA loops + repeats)
Parameter threshold = -0.2. Response is satisfied when pull-down binding Z-score meets or exceeds it, else not satisfied.

INSERT INTO assay_data (residue_sequence, class_label) VALUES
  ('CUCAACUCUUGGUCCUCUGAG [hsa-mir-3165]', 'not satisfied'),
  ('AGUGUUGUUUUUUCCCCCGCCAAUAUU [hsa-mir-92b]', 'not satisfied'),
  ('GGCCGGUCAGGCA [hsa-mir-4689]', 'satisfied'),
  ('CACGAGAUACCAGUGUGCACUUGUG [hsa-mir-542]', 'not satisfied'),
  ('UAAGAGUAAUAGCUCUCUAGGUUAUUAUGAAUA [hsa-mir-5692c-1]', 'not satisfied');

Next sequence, please.
Ask | Threshold query (pull-down binding Z-score >= -0.2) on CUGAGCUGGGUACUGCCUGUUCAG [hsa-mir-589]
Reply | satisfied
